test: Volume of distribution in C57BL/6J mouse at 30 mg/kg, iv by LC-MS/MS analysis; format: ADME, organism-based; settings: in vivo
Measured endpoint: Vd
A bare number is not enough; add the unit after it.

In plain terms, `COC(=O)Nc1noc2cc(-c3c(-c4ccccn4)n[nH]c3C)ccc12` has a documented Vd of 0.91 L/kg

* * *

As shown below, each of these molecules has a reported AUC value.
test: AUC in C57BL/6J mouse at 30 mg/kg, po by LC-MS/MS analysis; assay type: ADME, organism-based; settings: in vivo
Express it in ng·h/mL; write the number only.

{"Smiles input": "COC(=O)Nc1noc2cc(-c3c(-c4ccccn4)n[nH]c3C)ccc12", "Numeric readout": 36200}

Record `Cc1n[nH]c(C)c1-c1ccc2c(NC(=O)c3ccc(N4CCN(C)CC4)cc3)n[nH]c2c1` . Reported AUC: 2550

molecule `O=C(Nc1n[nH]c2cc(-c3ccc(O)cc3)ccc12)c1ccc(OCCN2CCOCC2)cc1` , AUC observed: 890

* * *

test: Clearance in C57BL/6J mouse at 30 mg/kg, iv by LC-MS/MS analysis; type: ADME, organism-based; settings: in vivo
Measured endpoint: clearance

The reported clearance of the compound `COC(=O)Nc1noc2cc(-c3c(-c4ccccn4)n[nH]c3C)ccc12` was 14.5 mL/min/kg

* * *

Each entry below lists one item and its recorded logD value.
experiment: Lipophilicity, log D of the compound; format: physicochemical; details: octanol/water
Write the value as a bare number.

{"Smiles input": "COC(=O)Nc1noc2cc(-c3c(-c4ccccn4)n[nH]c3C)ccc12", "logD": 2.5}

Continue with the compound presented below.
Recorded result, `Cc1n[nH]c(C)c1-c1ccc2c(NC(=O)c3ccc(N4CCN(C)CC4)cc3)n[nH]c2c1` , logD: 2.4

* * *

experiment: Unbound fraction in po dosed C57BL/6J mouse plasma by LC-MS/MS analysis; type: ADME, organism-based
Measured endpoint: fraction unbound
// keep it numeric: no unit symbol after the value

fraction unbound for `COC(=O)Nc1noc2cc(-c3c(-c4ccccn4)n[nH]c3C)ccc12` is 0.17

* * *

experiment: Tmax in C57BL/6J mouse at 30 mg/kg, po by LC-MS/MS analysis; type: ADME, organism-based; details: in vivo
# Lookup of reported Tmax keyed by entry

Reference set (2 entries):
{"Smiles input": "O=C(Nc1n[nH]c2cc(-c3ccc(O)cc3)ccc12)c1ccc(OCCN2CCOCC2)cc1", "Tmax": "1.5 h"}
{"Smiles input": "COC(=O)Nc1noc2cc(-c3c(-c4ccccn4)n[nH]c3C)ccc12", "Tmax": "1 h"}

Shifting focus to the molecule that follows.
Please fill in: Tmax reported for `Cc1n[nH]c(C)c1-c1ccc2c(NC(=O)c3ccc(N4CCN(C)CC4)cc3)n[nH]c2c1` = 3.25 h

* * *

assay: Metabolic stability in mouse liver microsomes assessed as parent compound remaining at 1 uM after 0.5 hrs by LC-MS/MS analysis; assay type: ADME, microsome; details: read-out: Stability
Measured endpoint: remaining at 0.5 h, 1 µM

{"Smiles input": "Cc1n[nH]c(C)c1-c1ccc2c(NC(=O)c3ccc(N4CCN(C)CC4)cc3)n[nH]c2c1", "remaining at 0.5 h, 1 µM": "80%"}

Now, please, on to the next compound.
Value of remaining at 0.5 h, 1 µM reported for the compound `COC(=O)Nc1noc2cc(-c3c(-c4ccccn4)n[nH]c3C)ccc12` is 87%

* * *

assay: Oral bioavailability in C57BL/6J mouse at 30 mg/kg by LC-MS/MS analysis; format: ADME, organism-based; conditions: in vivo
Measured endpoint: bioavailability (%)
Provide the reading as a plain figure in %.

Notebook: `COC(=O)Nc1noc2cc(-c3c(-c4ccccn4)n[nH]c3C)ccc12` , bioavailability read as 100

* * *

assay: Cmax in C57BL/6J mouse at 30 mg/kg, po by LC-MS/MS analysis; type: ADME, organism-based; set-up: dose 30 mg/kg, route oral; conditions: in vivo
Listing of entries alongside the reported Cmax.
Supply the numeric figure in ng/mL, leaving out any unit text.

Below, 2 compounds whose answers are already recorded.
{"Smiles input": "O=C(Nc1n[nH]c2cc(-c3ccc(O)cc3)ccc12)c1ccc(OCCN2CCOCC2)cc1", "Unit info": "ng/mL", "Cmax": 320}
{"Smiles input": "COC(=O)Nc1noc2cc(-c3c(-c4ccccn4)n[nH]c3C)ccc12", "Unit info": "ng/mL", "Cmax": 9170}

With those in mind, consider the next compound.
The recorded Cmax for `Cc1n[nH]c(C)c1-c1ccc2c(NC(=O)c3ccc(N4CCN(C)CC4)cc3)n[nH]c2c1` is 920
